# TEST_DETAILS: growth of efflux-deficient E. coli DRC39 – strain DRC39, OD650, 48 h, E. coli filamentation inducers, primary screen (AID 1179);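 note: screen aims at cell division blockers that make cells filament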
# CONDITION_DETAILS: E. coli DRC39 delta-acrAB growth, higher = more signal, called active from +8 up or from −8 down
Let's look at some compounds and their measured z-score.
The answer should be a number; do not append a unit.

Tell us which z-score value is on record for `C=CC[C@]1(C(=O)O)N=C(c2ccc(OCCCO)cc2)O[C@H]1c1ccccc1CN=[N+]=[N-]`
0.619

Tell us which z-score value is on record for `Cc1ccc(N2C(=O)c3ccccc3[C@@H](C(=O)NCC(C)C)[C@@H]2c2ccc(CO)cc2)nc1`
0.603

Origin of the recorded values: PubChem BioAssay
